Test system: RPMI-8226 leukemia
assay.info: NCI-60 one-dose screen, 48 h (100 = growth as untreated, 0 = no growth, -100 = all killed)
details: 10 µM unless noted
Method: Growth inhibition of the RPMI-8226 human tumor cell line is measured as a screen for anti-cancer activity. Cells are grown in 96 well plates and exposed to the test compound for 48 hours. Compounds are tested at a single concentration, which is 10^-5 M for most compounds. The reported endpoint is percent growth (GI% or GIPRCNT), where numbers from 0 - 100% represent growth inhibition, and numbers from -100% - 0 represent cell death. For example, a value of 40 represents 60% growth inhibition. […]
About 83,000 compounds went through this panel and 20% of them were active in at least one assay; those are over-represented in the sample as a whole.
Criterion: growth meeting or surpassing 20%. Met: 1 (yes). Not met: 0 (no).

{"columns": ["molecule", "group"],
 "data": [
  ["COc1cc(O)c2c(c1)[C@H]1O[C@@H]1C[C@H](O)[C@H](O)C(=O)/C=C\\C[C@H](C)OC2=O", "1 (yes)"]
]}

Exam item: decide whether the reported growth for O=c1[nH]c(CNc2ccc(NCc3c(-c4ccccc4)no[n+]3[O-])cc2)nc2c1cnn2-c1ccccc1 is at least 20%. 1 (yes)

Exam item: decide whether the reported growth for COc1cc2c3c(n(CCCNC4CCCC4)c(=O)c2cc1OC)-c1cc2c(cc1C3=O)OCO2 is at least 20%. 0 (no)

Exam item: decide whether the reported growth for CCOC(=O)C1=C(C)N=C2Sc3ccccc3N2C1c1ccccc1 (stereo not given) is at least 20%. 1 (yes)

Exam item: decide whether the reported growth for CN1CCN(Cc2ccc(NC(=O)c3cncc(C#Cc4cnc5ccc(O[C@H]6CCOC6)nn45)c3)cc2C(F)(F)F)CC1 is at least 20%. 0 (no)
